tested on: HLA-B*3501 (human)
test protocol: competition vs 125I-labelled probe peptide, purified HLA, gel filtration
metric name: pIC50
In plain terms, pIC50 is the concentration in mol/L turned into minus its base-10 logarithm.

Query :: // fetch pIC50 given entry FPLPAARPA (9-mer analog of the HER2/neu peptide starting at position 1155) [Her2/neu.1155.F1]
Result :: 6.56

Query :: Read off the recorded pIC50 for FPLDSTFYRSL (11-mer analog of the HER2/neu peptide starting at position 998) [Her2/neu.998.F1]
Result :: 6.40

Query :: State, in one line, measured pIC50 of FPRFRELVSEI (11-mer analog of the HER2/neu peptide starting at position 966) [Her2/neu.966.F1I11]
Result :: 6.62

Query :: Look up and state reported pIC50 for FPREGPLPAI (10-mer analog of the HER2/neu peptide starting at position 1151) [Her2/neu.1151.F1I10]
Result :: 5.14

Query :: Dear colleague, please send me the reported pIC50 for FPLAPSEGI (9-mer analog of the HER2/neu peptide starting at position 1073) [Her2/neu.1073.F1I9] when you can.
Result :: 6.26

Now let's try a different one.
Query :: Give the reported value of pIC50 for this record: FPLDSTFYRSI (11-mer analog of the HER2/neu peptide starting at position 998) [Her2/neu.998.F1I11]
Result :: 5.57
